Values compiled from ChEMBL document CHEMBL4351010.

Recorded Ki values (Adenosine receptor A2a (Homo sapiens, UniProt P29274)) are given below.
READOUT KIND: Ki (nM)

A selection of reference data follows.
• N#Cc1ccc(/C=N/Nc2nc(N)c3ncn([C@@H]4O[C@H](CO)[C@@H](O)[C@H]4O)c3n2)cc1 = 8.5
• Nc1nc(N/N=C/c2ccc(C(F)(F)F)cc2C(F)(F)F)nc2c1ncn2[C@@H]1O[C@H](CO)[C@@H](O)[C@H]1O = 6280
• CCN(CC)c1ccc(/C=N/Nc2nc(N)c3ncn([C@@H]4O[C@H](CO)[C@@H](O)[C@H]4O)c3n2)cc1 = 6.4

[I] Nc1nc(N/N=C/c2ccc(N3CCCC3)cc2)nc2c1ncn2[C@@H]1O[C@H](CO)[C@@H](O)[C@H]1O
[II] Nc1nc(N/N=C/c2cncs2)nc2c1ncn2[C@@H]1O[C@H](CO)[C@@H](O)[C@H]1O
Query: // compare measured Ki, left I , right II , return larger Returns: label corresponding to the selected item.
Response: I
(I: 6620 nM, II: 71 nM)

[a] COc1ccc(/C=N/Nc2nc(N)c3ncn([C@@H]4O[C@H](CO)[C@@H](O)[C@H]4O)c3n2)cn1
[b] Nc1nc(N/N=C/c2ccc3ncccc3c2)nc2c1ncn2[C@@H]1O[C@H](CO)[C@@H](O)[C@H]1O
Query: Could you please tell me which of these two has the higher Ki: a or b ? Use the label to indicate which entry you chose.
Response: a
(a: 1450 nM, b: 6.5 nM)

###

- STUDY SYSTEM: Adenosine receptor A2a (Homo sapiens)
- Sequence (P29274 whole entry): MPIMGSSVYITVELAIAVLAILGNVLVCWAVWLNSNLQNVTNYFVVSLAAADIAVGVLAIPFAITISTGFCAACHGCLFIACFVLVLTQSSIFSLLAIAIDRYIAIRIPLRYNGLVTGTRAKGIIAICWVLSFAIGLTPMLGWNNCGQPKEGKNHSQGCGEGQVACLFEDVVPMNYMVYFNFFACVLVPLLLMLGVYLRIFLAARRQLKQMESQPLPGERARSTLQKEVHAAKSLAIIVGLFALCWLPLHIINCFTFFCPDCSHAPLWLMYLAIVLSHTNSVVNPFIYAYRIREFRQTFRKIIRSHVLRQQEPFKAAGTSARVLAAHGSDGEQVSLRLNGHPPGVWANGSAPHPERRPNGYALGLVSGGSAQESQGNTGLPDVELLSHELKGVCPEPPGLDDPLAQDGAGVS
- METHOD SUMMARY: Agonist activity at human adenosine receptor A2A expressed in HEK293 cells assessed as cAMP accumulation incubated for 30 mins by Eu-cAMP tracer-based Envision plate reader analysis
pEC50: −log10 of the molar value.
READOUT KIND: pEC50

• Nc1nc(N/N=C/c2ccc3ncccc3c2)nc2c1ncn2[C@@H]1O[C@H](CO)[C@@H](O)[C@H]1O = 8.26

[A] CCCCC/C=C/C=C/C=N/Nc1nc(N)c2ncn([C@@H]3O[C@H](CO)[C@@H](O)[C@H]3O)c2n1
[B] Nc1nc(N/N=C/C2CCCC2)nc2c1ncn2[C@@H]1O[C@H](CO)[C@@H](O)[C@H]1O
Query: Higher pEC50 between A and B ? Select an item and report its label.
Response: B
(B: 8.36, A: 7.99)

###

- STUDY SYSTEM: Adenosine receptor A1 (Homo sapiens)
- Sequence (P30542 whole entry): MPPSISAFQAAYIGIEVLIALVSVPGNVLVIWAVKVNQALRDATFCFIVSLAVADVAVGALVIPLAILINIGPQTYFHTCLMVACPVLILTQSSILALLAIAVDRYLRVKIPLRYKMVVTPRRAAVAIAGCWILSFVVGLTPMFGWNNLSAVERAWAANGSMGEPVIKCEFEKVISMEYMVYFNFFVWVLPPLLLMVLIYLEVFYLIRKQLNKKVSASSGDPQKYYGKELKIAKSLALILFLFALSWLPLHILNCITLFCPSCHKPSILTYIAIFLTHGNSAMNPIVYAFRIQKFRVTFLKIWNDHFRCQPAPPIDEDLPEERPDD
- METHOD SUMMARY: Displacement of [3H]CPX from human adenosine receptor A1 expressed in CHO-K1 cell membranes incubated for 2 hrs by radioligand competitive binding analysis
pKi: −log10 of the molar value.
READOUT KIND: pKi

Query: Returns the measured pKi for the input molecule. Input: CNC(=O)c1cnn(-c2nc(N)c3ncn([C@@H]4O[C@H](CO)[C@@H](O)[C@H]4O)c3n2)c1 [REGADENOSON ANHYDROUS]
Response: < 4.78
